Target: HLA-B*27:05
Test: IEDB peptide-MHC binding, purified MHC/direct/fluorescence; filed as Kd, often an IC50 or EC50 that approximates it; bounds were set here for any values at or beyond the usual limits of such assays
Conditions: source organism: Collimonas fungivorans
readout name: Kd

IN: Fill in: Kd of "AYSPFAFKK" is ___
OUT: ≥ 20 µM

* * *

Target: HLA-B*57:01
Test: IEDB peptide-MHC binding, purified MHC/direct/fluorescence; filed as Kd, often an IC50 or EC50 that approximates it; bounds were set here for any values at or beyond the usual limits of such assays
Conditions: source organism: Cowpox virus
pKd: −log10 of the molar value.
readout name: pKd

IN: Fill in: pKd of "ILQDRIRMY" is ___
OUT: ≤ 4.70

* * *

Target: HLA-A*02:01
Experiment: IEDB peptide-MHC binding, purified MHC/direct/fluorescence; filed as Kd, often an IC50 or EC50 that approximates it; bounds were set here for any values at or beyond the usual limits of such assays
Settings: source organism: Yellow fever virus 17D
readout name: Kd

IN: Fill in: Kd of "CRTAFKPVL" is ___
OUT: ≥ 20 µM

* * *

Molecular target: HLA-A*02:11
Experiment: IEDB peptide-MHC binding, purified MHC/direct/fluorescence; filed as Kd, often an IC50 or EC50 that approximates it; bounds were set here for any values at or beyond the usual limits of such assays
Settings: source organism: Orthohantavirus tulaense
pKd: −log10 of the molar value.
readout name: pKd

IN: Kindly state the measured pKd obtained for "AESICSYWL" with HLA-A*02:11.
OUT: ≤ 4.70

* * *

Target: HLA-A*24:02
Assay: IEDB peptide-MHC binding, purified MHC/competitive/radioactivity; filed as Kd, often an IC50 or EC50 that approximates it; bounds were set here for any values at or beyond the usual limits of such assays
Conditions: source organism: Mammarenavirus guanaritoense
pKd by entry:
pKd here: minus log base 10 of the concentration, concentration in moles per litre.

{"columns": ["sequence input", "readout name", "recorded value"],
 "data": [
  ["MYEMHRESLL", "pKd", 5.50],
  ["VFQAKSAFV", "pKd", 5.97]
]}

Next sequence, pKd to be filled in.
IN: Kindly state the measured pKd obtained for "SFYSDPKRFF" with HLA-A*24:02.
OUT: 6.13

* * *

Molecular target: HLA-A*29:02
Test: IEDB peptide-MHC binding, purified MHC/direct/fluorescence; filed as Kd, often an IC50 or EC50 that approximates it; bounds were set here for any values at or beyond the usual limits of such assays
Details: source organism: Zaire ebolavirus
pKd: −log10 of the molar value.
readout name: pKd

{"columns": ["sequence input", "pKd"],
 "data": [
  ["WQQWDRQSL", "≤ 4.70"],
  ["GQFLSFASL", "≤ 4.70"]
]}

Next sequence, pKd to be filled in.
IN: Fill in: pKd of "DETFVHSGF" is ___
OUT: ≤ 4.70

* * *

Target: HLA-B*18:01
Test: IEDB peptide-MHC binding, purified MHC/competitive/fluorescence; filed as Kd, often an IC50 or EC50 that approximates it; bounds were set here for any values at or beyond the usual limits of such assays
Conditions: source organism: Cryptococcus neoformans var. neoformans B-3501A
pKd: −log10 of the molar value.
readout name: pKd

IN: Kindly state the measured pKd obtained for "AIDDFCLFA" with HLA-B*18:01.
OUT: ≤ 4.70

* * *

pKd by entry:
Target: HLA-B*08:03
Assay: IEDB peptide-MHC binding, purified MHC/direct/fluorescence; filed as Kd, often an IC50 or EC50 that approximates it; bounds were set here for any values at or beyond the usual limits of such assays
Conditions: source organism: Variola virus
pKd: −log10 of the molar value.

{"columns": ["sequence input", "pKd"],
 "data": [
  ["ILQDRIRMY", "≤ 4.70"]
]}

Next sequence, pKd to be filled in.
IN: Fill in: pKd of "FYLFTFTIY" is ___
OUT: ≤ 4.70

* * *

Target: HLA-A*26:01
Test: IEDB peptide-MHC binding, purified MHC/direct/fluorescence; filed as Kd, often an IC50 or EC50 that approximates it; bounds were set here for any values at or beyond the usual limits of such assays
Settings: source organism: Burkholderia mallei ATCC 23344
readout name: Kd

IN: Kindly state the measured Kd obtained for "EPFSRRHPL" with HLA-A*26:01.
OUT: ≥ 20 µM

* * *

Molecular target: HLA-B*46:01
Assay: IEDB peptide-MHC binding, purified MHC/competitive/fluorescence; filed as Kd, often an IC50 or EC50 that approximates it; bounds were set here for any values at or beyond the usual limits of such assays
Conditions: source organism: Orthohantavirus puumalaense
readout name: Kd

IN: Fill in: Kd of "SPVMGVIGF" is ___
OUT: ≥ 20 µM

* * *

Molecular target: HLA-C*07:02
Assay: IEDB peptide-MHC binding, purified MHC/direct/fluorescence; filed as Kd, often an IC50 or EC50 that approximates it; bounds were set here for any values at or beyond the usual limits of such assays
Settings: source organism: Bacillus anthracis str. A0488
readout name: pKd
pKd here: minus log base 10 of the concentration, concentration in moles per litre.

IN: Fill in: pKd of "FRMTENVPL" is ___
OUT: 7.32

* * *

Molecular target: HLA-A*33:01
Assay: IEDB peptide-MHC binding, purified MHC/competitive/radioactivity; filed as Kd, often an IC50 or EC50 that approximates it; bounds were set here for any values at or beyond the usual limits of such assays
Conditions: source organism: Triticum aestivum
readout name: Kd

IN: Fill in: Kd of "VSFQQPLQQY" is ___
OUT: ≥ 70 µM

* * *

Molecular target: HLA-A*31:01
Test: IEDB peptide-MHC binding, purified MHC/competitive/radioactivity; filed as Kd, often an IC50 or EC50 that approximates it; bounds were set here for any values at or beyond the usual limits of such assays
Conditions: source organism: Hepatitis C virus (isolate 1)
readout name: Kd (µM)
Unit µM implied. Number only.

IN: Fill in: Kd of "KLVALGINAV" is ___
OUT: 13.6

* * *

Target: HLA-A*69:01
Assay: IEDB peptide-MHC binding, purified MHC/direct/fluorescence; filed as Kd, often an IC50 or EC50 that approximates it; bounds were set here for any values at or beyond the usual limits of such assays
Conditions: source organism: Giardia lamblia ATCC 50803
pKd: −log10 of the molar value.
readout name: pKd

Illustrative cases are given below, each with its answer.
{"columns": ["sequence input", "recorded value"],
 "data": [
  ["SYPPPPASF", "≤ 4.70"],
  ["DIIRAHPWF", "≤ 4.70"]
]}

IN: Fill in: pKd of "FMYEDALKS" is ___
OUT: 5.87

* * *

Kd by entry:
Target: HLA-A*30:02
Assay: IEDB peptide-MHC binding, purified MHC/competitive/radioactivity; filed as Kd, often an IC50 or EC50 that approximates it; bounds were set here for any values at or beyond the usual limits of such assays
Settings: source organism: Dengue virus 2 Jamaica/1409/1983
Unit nM implied. Number only.

{"columns": ["sequence input", "Kd [nM]"],
 "data": [
  ["YKTWAYHGSY", 4220],
  ["KTWAYHGSY", 4050]
]}

IN: Kindly state the measured Kd obtained for "VSQHNYRPGY" with HLA-A*30:02.
OUT: 385

IN: Kindly state the measured Kd obtained for "RGSGQVGTY" with HLA-A*30:02.
OUT: 208

* * *

Target: HLA-A*30:02
Test: IEDB peptide-MHC binding, purified MHC/competitive/radioactivity; filed as Kd, often an IC50 or EC50 that approximates it; bounds were set here for any values at or beyond the usual limits of such assays
Settings: source organism: SARS coronavirus Tor2
readout name: Kd (µM)
Unit µM implied. Number only.

IN: Kindly state the measured Kd obtained for "SWFITQRNFF" with HLA-A*30:02.
OUT: 1.03

IN: Kindly state the measured Kd obtained for "VFYLYLTFYF" with HLA-A*30:02.
OUT: 12.4

IN: Kindly state the measured Kd obtained for "HFAIGLALY" with HLA-A*30:02.
OUT: 0.0132

* * *

Molecular target: HLA-B*53:01
Experiment: IEDB peptide-MHC binding, purified MHC/competitive/radioactivity; filed as Kd, often an IC50 or EC50 that approximates it; bounds were set here for any values at or beyond the usual limits of such assays
Conditions: source organism: Vaccinia virus WR
pKd: −log10 of the molar value.
The label depends only on pKd: true if it is at least 5, false if it is smaller.

IN: Is pKd for "SLTIKDSSNK" at or above 5?
OUT: false

IN: Is pKd for "SPYYIRKESY" at or above 5?
OUT: true

* * *

Target: HLA-A*11:01
Assay: IEDB peptide-MHC binding, purified MHC/competitive/radioactivity; filed as Kd, often an IC50 or EC50 that approximates it; bounds were set here for any values at or beyond the usual limits of such assays
Settings: source organism: Homo sapiens
readout name: Kd
Report as: number unit

IN: Fill in: Kd of "VVVGAGGVGK" is ___
OUT: 12.4 nM
